test: Oral bioavailability in rat at 1.58 mg/kg; assay type: ADME, organism-based; conditions: in vivo

- substance smiles: "COC(=O)Nc1ccc2c(c1)NC(=O)CC/C=C/C[C@H](NC(=O)/C=C/c1cc(Cl)ccc1-n1cnnn1)c1nc-2c[nH]1"
  bioavailability, %: 0.8

----------
target: Coagulation factor VII (Homo sapiens); experiment: Inhibition of activated human coagulation factor 7
Sequence (P08709 61-212 limits assumed): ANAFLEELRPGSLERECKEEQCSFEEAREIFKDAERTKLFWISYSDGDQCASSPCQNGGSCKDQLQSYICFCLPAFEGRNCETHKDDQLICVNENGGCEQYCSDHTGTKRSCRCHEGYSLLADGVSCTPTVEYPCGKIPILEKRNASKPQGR
Sequence (P08709 213-466 limits assumed): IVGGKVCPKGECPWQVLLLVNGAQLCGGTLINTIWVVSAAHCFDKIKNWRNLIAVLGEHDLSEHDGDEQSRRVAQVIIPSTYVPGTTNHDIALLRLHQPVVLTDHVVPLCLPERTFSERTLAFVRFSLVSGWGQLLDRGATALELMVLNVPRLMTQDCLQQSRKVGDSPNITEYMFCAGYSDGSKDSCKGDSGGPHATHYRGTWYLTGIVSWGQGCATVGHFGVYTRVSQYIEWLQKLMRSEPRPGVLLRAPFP
pKi: −log10 of the molar value.

- substance smiles: "COC(=O)Nc1ccc2c(c1)NC(=O)CC/C=C/C[C@H](N1CC[C@H](c3cccc(Cl)c3)CC1=O)c1nc-2c[nH]1"
  target of assay: "Coagulation factor VII (Homo sapiens)"
  pKi: 5.31

----------
experiment: Half life in human liver microsomes; type: ADME, Microsome
measured metric: half-life (min)

- molecule: "COC(=O)Nc1ccc2c(c1)NC(=O)CC/C=C/C[C@H](NC(=O)/C=C/c1cc(Cl)ccc1-n1cnnn1)c1nc-2c[nH]1"
  numeric value: 41
- molecule: "COC(=O)Nc1ccc2c(c1)NC(=O)CC/C=C/C[C@H](N1CC[C@H](c3cc(Cl)ccc3C(F)(F)F)OC1=O)c1nc-2c(Cl)[nH]1"
  numeric value: 18
- molecule: "COC(=O)Nc1ccc2c(c1)NC(=O)CC/C=C/C[C@H](N1CC[C@H](c3c(F)ccc(Cl)c3F)OC1=O)c1nc-2c(Cl)[nH]1"
  numeric value: 9
- molecule: "COC(=O)Nc1ccc2c(c1)NC(=O)CC/C=C/C[C@H](N1CCN(c3cccc(Cl)c3)CC1=O)c1nc-2c[nH]1"
  numeric value: 15
- molecule: "COC(=O)Nc1ccc2c(c1)NC(=O)CC/C=C/C[C@H](N1CCC(c3c(F)ccc(Cl)c3F)NC1=O)c1nc-2c[nH]1 (some centres not stated)"
  numeric value: 41
- molecule: "[2H][C@]1(c2c(F)ccc(Cl)c2F)CCN([C@H]2C/C=C/CCC(=O)Nc3cc(NC(=O)OC)ccc3-c3nc2[nH]c3Cl)C(=O)O1"
  numeric value: 16
- molecule: "COC(=O)Nc1ccc2c(c1)NC(=O)CC/C=C/C[C@H](N1CCC(c3cccc(Cl)c3)NC1=O)c1nc-2c[nH]1 (some centres not stated)"
  numeric value: 35

----------
pKi values by entry
biological target: Coagulation factor XI (Homo sapiens, UniProt P03951); assay: Inhibition of activated coagulation factor 11 (unknown origin) assessed as inhibitory constant
Sequence (P03951 19-387 limits assumed): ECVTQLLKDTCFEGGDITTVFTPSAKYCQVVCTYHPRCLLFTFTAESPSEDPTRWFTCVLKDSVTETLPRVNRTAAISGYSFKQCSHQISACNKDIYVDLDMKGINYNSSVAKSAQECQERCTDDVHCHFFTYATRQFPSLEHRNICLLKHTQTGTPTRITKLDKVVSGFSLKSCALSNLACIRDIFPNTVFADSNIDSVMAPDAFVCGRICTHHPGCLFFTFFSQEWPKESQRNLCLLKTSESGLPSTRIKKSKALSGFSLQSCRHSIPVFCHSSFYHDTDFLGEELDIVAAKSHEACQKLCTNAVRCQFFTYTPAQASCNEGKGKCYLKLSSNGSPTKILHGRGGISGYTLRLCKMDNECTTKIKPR
Sequence (P03951 388-625 limits assumed): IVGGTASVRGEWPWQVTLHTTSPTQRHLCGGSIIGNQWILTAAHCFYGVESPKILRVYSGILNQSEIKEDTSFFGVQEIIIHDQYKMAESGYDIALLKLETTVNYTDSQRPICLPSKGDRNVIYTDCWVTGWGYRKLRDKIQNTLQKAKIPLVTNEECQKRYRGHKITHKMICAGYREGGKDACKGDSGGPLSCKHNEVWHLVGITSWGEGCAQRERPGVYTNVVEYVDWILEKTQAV
pKi: −log10 of the molar value.

- compound: "COC(=O)Nc1ccc(-c2nc([C@H](Cc3ccccc3)N(C)C(=O)/C=C/c3cc(Cl)ccc3-n3cnnn3)[nH]c2Cl)cc1"
  limit operator: "="
  pKi: 6.72
- compound: "COC(=O)Nc1ccc(-c2nc([C@H](Cc3ccccc3)NC(=O)NCc3cccc(Cl)c3)[nH]c2Cl)cc1"
  limit operator: "="
  pKi: 6.37
- compound: "COC(=O)Nc1ccc(-c2cn3c(n2)C(Cc2ccccc2)N(C(=O)/C=C/c2cc(Cl)ccc2-n2cnnn2)CCC3)cc1 (stereo unspecified)"
  limit operator: "<"
  pKi: 4.88
- compound: "COC(=O)Nc1ccc(-c2nc([C@H](Cc3ccccc3)N3CCC(c4cccc(Cl)c4)NC3=O)[nH]c2Cl)cc1 (stereo partly specified)"
  limit operator: "="
  pKi: 6.76
- compound: "COC(=O)Nc1ccc(-c2nc([C@H](Cc3ccccc3)NC(=O)CCc3cccc(Cl)c3)[nH]c2Cl)cc1"
  limit operator: "="
  pKi: 6.06
- compound: "COC(=O)Nc1ccc(-c2c[nH]c([C@@H]3[C@@H](c4ccccc4)CCN3C(=O)/C=C/c3cc(Cl)ccc3-n3cnnn3)n2)cc1"
  limit operator: "="
  pKi: 6.43

----------
Biological target: Coagulation factor XII (Homo sapiens, UniProt P00748)
Sequence (P00748 whole entry): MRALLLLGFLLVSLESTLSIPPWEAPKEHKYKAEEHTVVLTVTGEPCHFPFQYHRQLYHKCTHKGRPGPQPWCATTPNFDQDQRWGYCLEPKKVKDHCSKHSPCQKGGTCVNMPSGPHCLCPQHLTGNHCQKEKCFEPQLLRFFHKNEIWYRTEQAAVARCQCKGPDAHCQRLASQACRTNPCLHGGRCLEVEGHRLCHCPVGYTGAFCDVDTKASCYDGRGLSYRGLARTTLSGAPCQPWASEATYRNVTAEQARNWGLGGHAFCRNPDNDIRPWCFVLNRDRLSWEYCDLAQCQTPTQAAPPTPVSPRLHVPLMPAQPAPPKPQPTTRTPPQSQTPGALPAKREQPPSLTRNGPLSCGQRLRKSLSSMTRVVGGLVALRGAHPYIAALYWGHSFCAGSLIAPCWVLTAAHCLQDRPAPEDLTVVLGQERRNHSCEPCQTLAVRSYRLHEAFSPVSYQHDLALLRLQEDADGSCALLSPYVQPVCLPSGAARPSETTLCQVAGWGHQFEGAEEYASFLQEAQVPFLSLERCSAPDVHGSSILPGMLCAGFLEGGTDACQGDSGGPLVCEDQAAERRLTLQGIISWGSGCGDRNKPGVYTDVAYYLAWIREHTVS
Assay: Inhibition of activated human coagulation factor 12
measured metric: Ki

- substance smiles: "COC(=O)Nc1ccc2c(c1)NC(=O)CC/C=C/C[C@H](N1CC[C@H](c3cccc(Cl)c3)CC1=O)c1nc-2c[nH]1"
  result: "> 3.05 µM"

----------
biological target: Coagulation factor IX (Homo sapiens, UniProt P00740); test: Inhibition of activated human coagulation factor 9
Sequence (P00740 47-191 limits assumed): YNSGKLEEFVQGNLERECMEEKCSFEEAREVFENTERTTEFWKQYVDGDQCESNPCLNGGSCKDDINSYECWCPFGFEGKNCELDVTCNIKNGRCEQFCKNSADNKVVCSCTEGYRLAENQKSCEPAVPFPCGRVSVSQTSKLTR
Sequence (P00740 227-461 limits assumed): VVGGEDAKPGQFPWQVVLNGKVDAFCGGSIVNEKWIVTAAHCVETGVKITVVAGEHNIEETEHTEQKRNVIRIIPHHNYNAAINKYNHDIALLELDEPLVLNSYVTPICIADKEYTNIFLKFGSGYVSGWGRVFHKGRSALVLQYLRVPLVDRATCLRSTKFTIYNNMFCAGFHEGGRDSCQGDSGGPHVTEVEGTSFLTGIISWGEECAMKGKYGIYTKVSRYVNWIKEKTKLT
pKi: −log10 of the molar value.

- substance smiles: "COC(=O)Nc1ccc2c(c1)NC(=O)CC/C=C/C[C@H](N1CC[C@H](c3cccc(Cl)c3)CC1=O)c1nc-2c[nH]1"
  pKi: "< 4.57"

----------
assay: Clearance in rat at 0.63 mg/kg, iv or 1.27 mg/kg, po; assay type: ADME, organism-based; conditions: in vivo
measured metric: clearance (mL/min/kg)

- substance smiles: "COC(=O)Nc1ccc2c(c1)NC(=O)CC/C=C/C[C@H](N1CC[C@H](c3cccc(Cl)c3)CC1=O)c1nc-2c[nH]1"
  measured metric: "clearance"
  numeric value: 188

----------
assay: AUC in rat; format: ADME; settings: in vivo
Below is a list of entries, each paired with its recorded AUC value.

- substance smiles: "COC(=O)Nc1ccc2c(c1)NC(=O)CC/C=C/C[C@H](N1CC[C@H](c3cccc(Cl)c3)OC1=O)c1nc-2c[nH]1"
  AUC: "0.523 µM·h"
- substance smiles: "COC(=O)Nc1ccc2c(c1)NC(=O)CC/C=C/C[C@H](NC(=O)/C=C/c1cccc(Cl)c1)c1nc-2c[nH]1"
  AUC: "0.027 µM·h"
- substance smiles: "COC(=O)Nc1ccc2c(c1)NC(=O)CC/C=C/C[C@H](NC(=O)/C=C/c1cc(Cl)ccc1-n1cnnn1)c1nc-2c[nH]1"
  AUC: "0.011 µM·h"
- substance smiles: "COC(=O)Nc1ccc2c(c1)NC(=O)CC/C=C/C[C@H](N1CC[C@H](c3cccc(Cl)c3)CC1=O)c1nc-2c[nH]1"
  AUC: "0.031 µM·h"

----------
target: Prothrombin (Homo sapiens)
pKi: −log10 of the molar value.
measured metric: pKi

- substance smiles: "COC(=O)Nc1ccc2c(c1)NC(=O)CC/C=C/C[C@H](N1CC[C@H](c3cccc(Cl)c3)CC1=O)c1nc-2c[nH]1"
  target of assay: "Prothrombin (Homo sapiens)"
  result: "< 4.88"

----------
test: Oral bioavailability in rat at 1.36 mg/kg; format: ADME, organism-based; conditions: in vivo

- substance smiles: "COC(=O)Nc1ccc2c(c1)NC(=O)CC/C=C/C[C@H](N1CC[C@H](c3cccc(Cl)c3)OC1=O)c1nc-2c[nH]1"
  bioavailability: "59%"

----------
assay: Clearance in rat at […], iv or 1.04 mg/kg, po; format: ADME, organism-based; details: in vivo

- substance smiles: "COC(=O)Nc1ccc2c(c1)NC(=O)CC/C=C/C[C@H](NC(=O)/C=C/c1cccc(Cl)c1)c1nc-2c[nH]1"
  clearance: "44 mL/min/kg"

----------
target: UniProt:P04070; assay: Inhibition of human activated protein C
Sequence (P04070 43-197 limits assumed): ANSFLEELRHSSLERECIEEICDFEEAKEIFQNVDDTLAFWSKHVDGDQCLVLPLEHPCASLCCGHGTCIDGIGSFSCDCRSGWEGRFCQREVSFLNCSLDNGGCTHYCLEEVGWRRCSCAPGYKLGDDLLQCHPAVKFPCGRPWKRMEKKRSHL
Sequence (P04070 212-461 limits assumed): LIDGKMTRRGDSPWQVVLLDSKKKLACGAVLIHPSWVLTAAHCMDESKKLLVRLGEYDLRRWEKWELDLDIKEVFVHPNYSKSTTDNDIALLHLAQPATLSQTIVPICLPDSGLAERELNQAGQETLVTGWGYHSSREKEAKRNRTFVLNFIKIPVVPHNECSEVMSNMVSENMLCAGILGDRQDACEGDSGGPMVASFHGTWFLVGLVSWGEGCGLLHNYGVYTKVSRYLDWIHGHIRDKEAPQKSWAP
pKi: −log10 of the molar value.

- substance smiles: "COC(=O)Nc1ccc2c(c1)NC(=O)CC/C=C/C[C@H](N1CC[C@H](c3cccc(Cl)c3)CC1=O)c1nc-2c[nH]1"
  target of assay: "UniProt:P04070"
  pKi: "< 5.15"

----------
experiment: Volume of distribution at steady state in rat at […], iv or 1.04 mg/kg, po; assay type: ADME, organism-based; details: in vivo, read-out: Vdss

- substance smiles: "COC(=O)Nc1ccc2c(c1)NC(=O)CC/C=C/C[C@H](NC(=O)/C=C/c1cccc(Cl)c1)c1nc-2c[nH]1"
  Vd, L/kg: 3.2

----------
assay: Half life in rat liver microsomes; format: ADME, Microsome
Please respond with YES when measured half-life is strictly beneath 20 min, and with NO in all other cases.

- compound: "COC(=O)Nc1ccc2c(c1)NC(=O)CC/C=C/C[C@H](N1CC[C@H](c3c(F)ccc(Cl)c3F)OC1=O)c1nc-2c(Cl)[nH]1"
  group: "NO"
- compound: "COC(=O)Nc1ccc2c(c1)NC(=O)CC/C=C/C[C@H](NC(=O)/C=C/c1cc(Cl)ccc1-n1cnnn1)c1nc-2c[nH]1"
  group: "NO"
- compound: "COC(=O)Nc1ccc2c(c1)NC(=O)CC/C=C/C[C@H](N1CC[C@H](c3c(F)ccc(Cl)c3F)CC1=O)c1nc-2c[nH]1"
  group: "YES"
- compound: "COC(=O)Nc1ccc2c(c1)NC(=O)CC/C=C/C[C@H](N1CC[C@H](c3cc(Cl)ccc3F)OC1=O)c1nc-2c(Cl)[nH]1"
  group: "YES"
- compound: "COC(=O)Nc1ccc2c(c1)NC(=O)CC/C=C/C[C@H](N1CCC(c3c(F)ccc(Cl)c3F)NC1=O)c1nc-2c[nH]1 (some centres not stated)"
  group: "NO"
- compound: "COC(=O)Nc1ccc2c(c1)NC(=O)CC/C=C/C[C@H](N1CCC(c3cccc(Cl)c3)NC1=O)c1nc-2c[nH]1 (some centres not stated)"
  group: "YES"
- compound: "COC(=O)Nc1ccc2c(c1)NC(=O)CC/C=C/C[C@H](N1CC[C@H](c3cccc(Cl)c3)OC1=O)c1nc-2c(Cl)[nH]1"
  group: "YES"
